# Tested on: SW-620 colon
# Method Notes: NCI-60 one-dose screen, 48 h
# Cond: 10 µM unless noted
# Description: Growth inhibition of the SW-620 human tumor cell line is measured as a screen for anti-cancer activity. Cells are grown in 96 well plates and exposed to the test compound for 48 hours. Compounds are tested at a single concentration, which is 10^-5 M for most compounds. The reported endpoint is percent growth (GI% or GIPRCNT), where numbers from 0 - 100% represent growth inhibition, and numbers from -100% - 0 represent cell death. For example, a value of 40 represents 60% growth inhibition. […]
Compounds without any hit were thinned out: in the full panel of roughly 83,000, 20% have a hit. Activity calls are given as the source filed them. The calls were made as follows: active = growth percent below 10; inactive = the rest.
Could you please pick one outcome from this set? 1 for active, -1 for inactive

Would you please look over these solved cases?
# Compound, Class Assignment
rows = [
    ("CNC(=O)c1cc(Oc2ccc(NC(=O)c3nc(S(C)(=O)=O)n(C)c3-c3ccc(F)cc3)cc2)ccn1", -1),
    ("CCOC(=O)c1ccc(NC(=O)NC2=NCCS2)cc1", -1),
    ("CCCCNCC(O)c1cc(-c2ccc(C(F)(F)F)cc2)nc(-c2ccc(C(F)(F)F)cc2)c1 (centres undefined)", 1),
    ("CC1=NOCC(=O)N1", -1),
]

**Q:** Entry Oc1c(C(c2ccc(F)cc2)N2CCCCC2)ccc2cncnc12 (centres undefined) : call = ?
**A:** -1

**Q:** Given Cc1ccc(NC(=O)c2[nH]c(SCCN(C)C)nc2-c2ccc(F)cc2)cc1C#Cc1cnc2cccnn12 , state the outcome it received in this test.
**A:** 1

**Q:** So what was the verdict on O=C(CS)OCC(COC(=O)CS)(COC(=O)CS)COC(=O)CS in this test?
**A:** -1

**Q:** Outcome logged for Cc1cc(NC(=O)c2ccc(N)cc2)ccc1N=Nc1ccc2cc(S(=O)(=O)O)cc(S(=O)(=O)O)c2c1 in this assay:
**A:** -1

**Q:** For this compound, state the assay outcome: CCC(C)C1NC(=O)c2nc(oc2-c2ccccc2)-c2csc(n2)-c2csc(n2)-c2nc(oc2C)-c2coc(n2)CNC(=O)C(C(C)CC)NC1=O (centres undefined)
**A:** 1

###

# Test system: NCI-H23 lung
# Method Notes: NCI-60 one-dose screen, 48 h
# Cond: 10 µM unless noted
Compounds without any hit were thinned out: in the full panel of roughly 83,000, 20% have a hit. Activity calls are given as the source filed them. The calls were made as follows: active = growth percent below 10; inactive = the rest.
Bench note: report the call from active, inactive

**Q:** Could you please tell me the result logged for O=C1/C(=C\c2cccn2Cc2ccc(F)cc2)c2ccccc2N1c1c(Cl)cccc1Cl in this assay?
**A:** inactive

**Q:** Lab log entry: Clc1ccc(Nc2ncnc3c2sc2ncccc23)cc1 — outcome as called in the assay?
**A:** active

**Q:** Could you kindly confirm the outcome this assay logged for COc1ccc(NC(=O)/C=C/c2ccc(Cl)c(Cl)c2)cn1 ?
**A:** inactive

**Q:** Could you check what this test reported for N=c1n(Cc2ccccc2)c(N)cc(=O)n1Cc1ccccc1 ?
**A:** inactive

**Q:** Check the results log: what was the call for Cc1nc2ccc(Nc3nc(NCCN4CCOCC4)nc(Nc4ccc(F)cc4)n3)cc2n1Cc1ccccc1 ?
**A:** inactive

**Q:** Recorded test call requested for CCCc1n(Cc2ccc3ccccc3n2)cc[n+]1Cc1ccc2ccccc2n1
**A:** inactive

**Q:** What did the test return for CN1CCN(Cc2ccc(NC(=O)c3cnc(F)c(C#Cc4cnc(N)c5ncccc45)c3)cc2C(F)(F)F)CC1 ?
**A:** inactive

**Q:** # outcome recorded in this test, key = CC(=O)Nc1ccc(Cl)cc1Cl
**A:** inactive

**Q:** Per the assay record, what outcome was assigned to COc1ccccc1NC(=O)OCC12COCN1COC2 ?
**A:** inactive

**Q:** Could you kindly confirm the outcome this assay logged for COc1ccc(-n2nc(C(=O)NCC(=O)Nc3nc4cc(OC)ccc4s3)c3ccccc3c2=O)cc1 ?
**A:** inactive

**Q:** What call does the record list for CCOC(=O)c1ccccc1SC(C[N+](=O)[O-])c1ccccc1 (stereo not drawn) ?
**A:** inactive

###

# Test system: MDA-MB-231 breast
# Method Notes: NCI-60 one-dose screen, 48 h (100 = growth as untreated, 0 = no growth, -100 = all killed)
# Cond: 10 µM unless noted
About 83,000 compounds went through this panel and 20% of them were active in at least one assay; those are over-represented in the sample as a whole.
Assignment: determine reported growth for the given compounds.
Numbers only, in %.

Worked examples, 2 compounds total:
# Compound, Value Units, growth
data = [
    ("O=C(C(Br)C(Br)c1ccccc1)C(Br)C(Br)c1ccccc1 (stereo unspecified)", "%", -16.5),
    ("C=CCn1c(C)nc2cc(Nc3nc(Nc4ccc5nc(C)n(CC=C)c5c4)nc4ccccc34)ccc21", "%", 90),
]

Return reported growth values for all items listed beneath this line.
1. O=C(O)/C=C(\c1nc2ccc([N+](=O)[O-])cc2[nH]1)c1cc(Cl)ccc1O
2. c1ccc(C2=Nc3ccccc3SC2)cc1
3. Fc1ccc(-c2nnc(N3CCOCC3)c3ccccc23)cc1
4. CCCCCCCCCCCCCCCc1cc(O)ccc1[N+](=O)[O-]
5. COc1ccc(-c2nc(-c3cc(OC)cc(OC)c3)[nH]c2-c2ccc(OC)cc2)cc1
6. CCC(=O)NC(O)C(Cl)(Cl)C(C)Cl (stereo unspecified)
7. O=C(CCc1nc2sc3c(c2c(=O)[nH]1)CCC3)NCc1cn(-c2ccccc2)nc1-c1ccccc1

**A:**
1. 13.1
2. 101
3. 107
4. 69.2
5. 58.7
6. 99.8
7. 11.4

Each compound below has a recorded value; state its growth.
1. O=C(N=Nc1c(Cl)c(O)c2ccccc2c1O)C(=O)Nc1cccc(C(F)(F)F)c1
2. O=C(CSc1ccc(Cl)cc1)Nc1ccc(-c2nc3ccccc3s2)c(Cl)c1
3. C#CC[C@@H]1C[C@]2(C)[C@H]3CC=C4[C@H]5CC(C)(C)CC[C@]5(C(=O)NCCCCN)CC[C@@]4(C)[C@]3(C)CC[C@H]2C(C)(C)[C@H]1OC(C)=O
4. CN1CCN(Cc2ccc(NC(=O)c3cnc(F)c(C#Cc4cnc(N)c5ncccc45)c3)cc2C(F)(F)F)CC1
5. O=C(c1ccc(C(F)(F)F)c(Cl)c1)N(Cc1ccc(Cl)cc1)c1ccc(-c2cc(C(F)(F)F)[nH]n2)c(O)c1
6. C=CCn1c(C)nc2cc(Nc3nc(N4CCCC4)nc4nc[nH]c34)ccc21
7. O=C1/C(=C\c2cccn2C(=O)c2ccccc2)c2ccccc2N1c1c(Cl)cccc1Cl
8. O=C(Cn1nncc1CN1C(=O)CSC1=O)Nc1ccc(F)cc1

**A:**
1: 56.6; 2: 93.8; 3: -58.6; 4: -25.7; 5: -35.7; 6: -25; 7: 74.6; 8: 109

###

# Tested on: NCI-H226 lung
# Method Notes: NCI-60 one-dose screen, 48 h (100 = growth as untreated, 0 = no growth, -100 = all killed)
# Cond: 10 µM unless noted
The panel holds about 83,000 compounds, 20% with a hit somewhere; the sample as a whole holds those more often.
Provide the reported growth of each item.
Numbers only, in %.

Field: example entries. Status: answers known.
# Molecule, growth / %
data = [
    ("Cc1nc2ccc(Nc3nc(N4CCOCC4)nc(N4CCN(C)CC4)n3)cc2n1Cc1ccccc1", 95.8),
    ("N=C(N)c1ccc(-c2ccc(-c3cc(Cl)cc(Cl)c3)o2)nc1", 99.5),
    ("CCCCCCCCCCCCCCCCS(=O)(=O)Nc1cc(C(=O)NN)cc(C(=O)NN)c1", 73.1),
    ("CCC(C)C1NC(=O)c2nc(oc2-c2ccccc2)-c2csc(n2)-c2csc(n2)-c2nc(oc2C)-c2coc(n2)CNC(=O)C(C(C)CC)NC1=O (configuration not stated)", -55.8),
    ("CCCCCCCCNC(C)C(O)c1ccc(SC(C)C)cc1 (configuration not stated)", 96),
]

Could you report growth for every entry in the following list?
1. Cc1nc2c(-c3cnc(N)nc3)nc(N3CCOCC3)nc2n1C(C)C
2. CCOC(=O)NNc1cccc(Cl)c1
3. COc1ccc(/C=C(/C(=O)N2CCN(c3ccccc3)CC2)c2cc(OC)c(OC)c(OC)c2)cc1O
4. Oc1ccc(-c2cnc(-c3ccccc3)[nH]2)c(O)c1
5. Oc1[nH]c2ccc(Cl)cc2c1/C=c1/ccc2c(c1)N=C(c1ccc(F)cc1)N=2
6. COc1cc(-c2n/c(=C\c3c(O)[nH]c4cc(Cl)ccc34)cc3c2=Nc2ccccc2-3)cc(OC)c1OC
7. CCN(C(=O)Nc1cccc2ccccc12)c1ccccc1
8. N#Cc1nc(-c2cccc(Br)c2)cc(-c2ccc(Nc3nc(N4CCCCC4)nc(N4CCCCC4)n3)cc2)c1N

**A:**
[-1.05, 84.7, 28.9, 86.2, 89.9, 89.9, 98.1, -73.7]

# batch: return growth for each of the 2 molecules below
1. CCCc1cc2c(cc1CN(Cc1cc3c(cc1CCC)OCO3)C(=N)OCC)OCO2
2. Cc1nc2ccc(Nc3nc(NCCN4CCOCC4)nc(Nc4ccc(F)cc4)n3)cc2n1Cc1ccccc1

**A:**
86.4
72.1
